Field: pIC50. Provide a value for each of the compounds that follow.
target: HSV-1 ribonucleotide reductase (Human herpesvirus 1, UniProt P08543); construct: HSV-1 ribonucleotide reductase (partially purified) was obtained from quiescent BHK-21/C13 cells infected with strain F HSV-1 virus; made in house; host or cells: quiescent BHK-21/C13 cells infected with HSV-1 strain F (virus-encoded enzyme, partially purified); assay: Inhibition of Herpes Simplex Virus (HSV-1) ribonucleotide reductase; assay type: biochemical; conditions: Table I; partially purified enzyme from BHK-21/C13 cells infected with strain F HSV-1; mean of four assays
Sequence (P08543 whole entry): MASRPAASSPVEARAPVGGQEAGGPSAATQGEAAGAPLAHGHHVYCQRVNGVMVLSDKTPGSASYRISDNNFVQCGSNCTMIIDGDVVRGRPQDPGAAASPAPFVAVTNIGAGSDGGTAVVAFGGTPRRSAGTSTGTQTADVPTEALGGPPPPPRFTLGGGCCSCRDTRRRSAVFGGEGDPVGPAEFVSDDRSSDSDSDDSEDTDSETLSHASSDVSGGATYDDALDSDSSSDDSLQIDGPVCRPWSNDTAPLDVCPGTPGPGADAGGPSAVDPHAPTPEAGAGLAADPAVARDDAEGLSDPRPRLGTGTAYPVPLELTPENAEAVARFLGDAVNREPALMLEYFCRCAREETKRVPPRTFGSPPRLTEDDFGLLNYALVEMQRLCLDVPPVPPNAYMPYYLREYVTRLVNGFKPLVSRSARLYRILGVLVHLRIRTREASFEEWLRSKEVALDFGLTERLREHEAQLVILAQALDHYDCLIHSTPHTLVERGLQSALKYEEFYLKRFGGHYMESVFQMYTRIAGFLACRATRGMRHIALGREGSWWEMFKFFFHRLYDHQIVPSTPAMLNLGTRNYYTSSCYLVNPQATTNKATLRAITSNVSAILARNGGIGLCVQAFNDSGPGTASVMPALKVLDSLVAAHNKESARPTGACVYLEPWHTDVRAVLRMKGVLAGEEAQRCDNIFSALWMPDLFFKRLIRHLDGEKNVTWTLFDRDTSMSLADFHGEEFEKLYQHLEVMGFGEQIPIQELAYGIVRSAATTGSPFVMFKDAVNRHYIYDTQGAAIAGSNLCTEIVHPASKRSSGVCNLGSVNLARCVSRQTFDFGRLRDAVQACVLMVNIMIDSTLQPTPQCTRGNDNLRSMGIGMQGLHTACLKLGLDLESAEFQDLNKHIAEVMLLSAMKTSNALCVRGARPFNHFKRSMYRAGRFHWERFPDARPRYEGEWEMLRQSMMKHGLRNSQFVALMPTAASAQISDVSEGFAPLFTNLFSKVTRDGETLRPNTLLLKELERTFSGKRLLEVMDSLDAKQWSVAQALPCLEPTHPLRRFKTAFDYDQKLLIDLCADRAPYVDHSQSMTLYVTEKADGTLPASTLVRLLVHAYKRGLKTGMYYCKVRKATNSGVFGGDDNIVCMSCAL
Numbers only, as −log10 of the molar value.

compound	measured_number
CCCC(CCC)NC(=O)NC(C(=O)CC(CC(=O)C(C)(C)C)C(=O)NC(C(=O)NCC(C)(C)C)C1(C(=O)O)CCCC1)C(C)(C)C (stereo not shown)	7.10
CCC(CC)NC(=O)NC(C(=O)CC(CC(=O)C(C)(C)C)C(=O)NC(C(=O)NCC(C)(C)C)C1(C(=O)O)CCCC1)C(C)(C)C (stereo not shown)	6.64
CCC(CC)NC(=O)NC(C(=O)CC(CC(=O)C(C)(C)C)C(=O)NC(C(=O)NC(CC(C)(C)C)C(=O)O)C1(C(=O)O)CCCC1)C(C)(C)C (stereo not shown)	6.92
CC(C)C(C(=O)NC(C(=O)CC(CC(=O)C1CCCC1)C(=O)NC(C(=O)NCC(C)(C)C)C1(C(=O)O)CCCC1)C(C)(C)C)N(C)C(=O)CCc1ccccc1 (stereo not shown)	6.49
CC(C)C(C(=O)NC(C(=O)CC(CC(=O)C(C)(C)C)C(=O)NC(C(=O)NCC(C)(C)C)C1(C(=O)O)CCCC1)C(C)(C)C)N(C)C(=O)CCc1ccccc1 (stereo not shown)	6.48

Each of the following entries comes with a recorded value; kindly state pIC50 for each.
1. CCC(CC)NC(=O)NC(C(=O)CC(CC(=O)C(C)(C)C)C(=O)NC(C(=O)NC(CC(C)(C)C)C(N)=O)C1(C(=O)O)CCCC1)C(C)(C)C (stereo not shown)
2. CCC(CC)NC(=O)NC(C(=O)CC(CC(=O)C(C)(C)C)C(=O)NC(C(=O)NCC(C)(C)C)C(C)C(=O)O)C(C)(C)C (stereo not shown)

*A*
1. 6.66
2. 6.70

====

tested on: HSV-2; test: Inhibition of Herpes Simplex Virus (HSV-2) replication in cell culture; type: cell-based; settings: Human alphaherpesvirus 2, Table IV; cell culture assay of example 11
measure: EC50 (µM)
One number for each entry, in µM.

molecule	measurement_target	EC50 / µM
CCCC(C)(CCC)NC(=O)NC(C(=O)CC(CC(=O)C(C)(C)C)C(=O)NC(C(=O)NCC(C)(C)CC)C1(C(=O)O)CCCC1)C(C)(C)C (centres unmarked)	HSV-2	29

*Q* Enter EC50 (test system HSV-2) for CCCC(CCC)NC(=O)NC(C(=O)CC(CC(=O)C(C)(C)C)C(=O)NC(C(=O)NC(C)C(C)(C)CC)C1(C(=O)O)CCCC1)C(C)(C)C (centres unmarked)
*A* 21

====

Field: pEC50. Provide a value for each of the compounds that follow.
test system: HSV-2; assay: Inhibition of Herpes Simplex Virus (HSV-2) replication in cell culture; type: cell-based; conditions: Human alphaherpesvirus 2, BHK21 (C13), 29 h
Numbers only, as −log10 of the molar value.

compound	pEC50
CC(C)[C@@H](C(=O)N[C@H](C(=O)C[C@@H](CC(=O)C(C)(C)C)C(=O)N[C@H](C(=O)N[C@H](CO)CC(C)(C)C)C1(C(=O)O)CCCC1)C(C)(C)C)N(C)C(=O)CCc1ccccc1	4.82

Each of the following entries comes with a recorded value; kindly state pEC50 for each.
1. CCC(CC)NC(=O)NC(C(=O)CC(CC(=O)C1CCCC1)C(=O)NC(C(=O)NCC(C)(C)C)C1(C(=O)O)CCCC1)C(C)(C)C (stereo not shown)
2. CC(C)[C@@H](C(=O)N[C@H](C(=O)C[C@@H](CC(=O)C(C)(C)C)C(=O)N[C@H](C(=O)N[C@@H](CC(C)(C)C)C(=O)O)C1(C(=O)O)CCCC1)C(C)(C)C)N(C)C(=O)CCc1ccccc1
3. CC(C)[C@@H](C(=O)N[C@H](C(=O)C[C@@H](CC(=O)C(C)(C)C)C(=O)N[C@H](C(=O)N[C@@H](CC(C)(C)C)C(N)=O)C1(C(=O)O)CCCC1)C(C)(C)C)N(C)C(=O)CCc1ccccc1

*A*
4.30
4.19
4.22
